Cited source: paper PMC7156458

- method: cytotoxicity in Drosophila l(2)mbn cells
- Format: cell-based
- stated conditions: Drosophila, 20 µM, replicate 1, relative to DMSO 1%, read-out: % viability, viability 1
- Protocol: We screened the DDPs on the Drosophila assay system for cytotoxicity, inhibitory activity of innate immune signalling and insecticidal activity. The cytotoxicity of the DDPs was evaluated using two cell lines, embryonic macrophage-derived DL1 cells[58]–[60] and larval blood cell-derived l(2)mbn cells, and their IC50 values are listed in Supplementary Table 23.
quantity measured: viability at 20 µM (%)
Output spec: scalar in %, unitless text.

Qu. What does the data say about its viability at 20 µM? Entry: C=C1CCC2C(C)(CCC=C(C)C)C(O)CCC2(C)C1Cc1c(OC)oc(C)c(C)c1=O (stereo not shown) [Compound 11]
Ans. 2.02

* * *

- method: cytotoxicity in Drosophila l(2)mbn cells
- Assay type: cell-based
- stated conditions: Drosophila, l(2)mbn cells (larval blood cell-derived), 0.2 µM, replicate 1, relative to DMSO 1%, read-out: % viability, viability 1
quantity measured: viability at 0.2 µM
Quote the value and follow it with the unit of measurement.

Qu. What does the data say about its viability at 0.2 µM? Entry: C=C1CC[C@H]2[C@]3(C)C[C@H](C=C(C)C)O[C@H]3CC[C@]2(C)[C@@H]1Cc1c(OC)oc(C)c(C)c1=O [Compound 24]
Ans. 137%

* * *

- Tested on: DL1 cells
- method: cytotoxicity in Drosophila DL1 cells
- Assay type: cell-based
- stated conditions: Drosophila melanogaster, DL1 cells, cytotoxicity, replicate 1; read-out: IC50 (1)
- Procedure: We screened the DDPs on the Drosophila assay system for cytotoxicity, inhibitory activity of innate immune signalling and insecticidal activity. The cytotoxicity of the DDPs was evaluated using two cell lines, embryonic macrophage-derived DL1 cells[58]–[60] and larval blood cell-derived l(2)mbn cells, and their IC50 values are listed in Supplementary Table 23.
quantity measured: IC50 (nM)
Output spec: scalar in nM, unitless text.

Take a look at these entries with their results.
{"molecule": "C=C1CC[C@@H]2[C@](C)(CC[C@H]3O[C@H](C=C(C)C)C[C@@]23C)[C@@H]1Cc1c(OC)oc(CO)c(C)c1=O", "IC50 (nM)": 299}
{"molecule": "C=C1CC[C@H]2[C@]3(C)C[C@H](C=C(C)C)O[C@H]3CC[C@]2(C)[C@@H]1Cc1c(OC)oc(CO)c(C)c1=O", "IC50 (nM)": 236}
{"molecule": "C=C1CCC2C(C)(CCC=C(C)C)C(O)CCC2(C)C1Cc1c(OC)oc(C)c(C(=O)OC)c1=O (centres unmarked)", "IC50 (nM)": 502}

Now consider a different molecule.
Qu. What does the data say about its IC50? Entry: C=C1CCC2C(C)(CC(=O)C=C(C)C)C(O)CCC2(C)C1Cc1c(OC)oc(CO)c(C)c1=O (centres unmarked)
Ans. 10300

* * *

- assay system: Aβ42 (Homo sapiens, UniProt P05067)
- Sequence (P05067 672-713): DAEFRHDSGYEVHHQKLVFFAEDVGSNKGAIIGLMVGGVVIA
- method: Th-T (thioflavin-T) assay of Aβ42 aggregation
- Assay type: biochemical
- stated conditions: column suffix _20; reading M18
quantity measured: Th-T assay signal, mean of three wells (Fig. 7a)

Take a look at these entries with their results.
{"molecule": "C=C1CCC2C(C)(CCC=C(C)C)C(O)CCC2(C)C1Cc1c(OC)oc(CO)c(C(=O)OC)c1=O (centres unmarked)", "measured value": 0.1827}
{"molecule": "C=C1CC[C@@H]2[C@](C)(CC[C@H]3O[C@H](C=C(C)C)C[C@@]23C)[C@@H]1Cc1c(OC)oc(CO)c(C(=O)OC)c1=O", "measured value": 0.1963}
{"molecule": "C=C1CCC2C(C)(CCC=C(C)C)C(O)CCC2(C)C1Cc1c(OC)oc(CO)c(C)c1=O (centres unmarked)", "measured value": 2.567}
{"molecule": "C=C1CC[C@@H]2[C@](C)(CC[C@H]3O[C@H](C=C(C)C)C[C@@]23C)[C@@H]1Cc1c(OC)oc(CO)c(C)c1=O", "measured value": 3.081}

Now consider a different molecule.
Qu. What does the data say about its Th-T assay signal, mean of three wells (Fig. 7a)? Entry: C=C1CCC2C(C)(CCC=C(C)C)C(O)CCC2(C)C1Cc1c(OC)oc(C)c(C(=O)OC)c1=O (centres unmarked)
Ans. 0.9743
